System: Schistosoma mansoni peroxiredoxin 2 (Prx2)
experiment-summary: Schistosoma Mansoni Peroxiredoxins (Prx2); also: potency is read from the fitted curve at half-maximal effect
condition-description: S. mansoni Prx2 activity coupled to TGR/GSH (TGR is thioredoxin glutathione reductase), NADPH fluorescence loss, qHTS
About 45 (0.07%) of roughly 65,000 compounds were called active. A selection follows.
endpoint-label: Potency

>  <smiles>
N#Cc1ccc(CN2CCCC3(CCN(C(=O)c4ccco4)CC3)C2)cc1

>  <study-system>
Schistosoma mansoni peroxiredoxin 2 (Prx2)

>  <endpoint-label>
Potency

>  <result>
> 57 µM (inactive)

$$$$
>  <smiles>
Cc1ccnc(N)c1

>  <study-system>
Schistosoma mansoni peroxiredoxin 2 (Prx2)

>  <endpoint-label>
Potency

>  <result>
> 25.6 µM (inactive)

$$$$
>  <smiles>
CN1CCN2c3ccccc3Cc3ccccc3[C@@H]2C1

>  <study-system>
Schistosoma mansoni peroxiredoxin 2 (Prx2)

>  <endpoint-label>
Potency

>  <result>
> 57 µM (inactive)

$$$$
>  <smiles>
CN(Cc1ccco1)c1ncncc1-c1ccoc1

>  <study-system>
Schistosoma mansoni peroxiredoxin 2 (Prx2)

>  <endpoint-label>
Potency

>  <result>
> 57 µM (inactive)

$$$$
>  <smiles>
O=C(c1csnn1)N1CCC2(CCN(Cc3nccs3)CC2)CC1

>  <study-system>
Schistosoma mansoni peroxiredoxin 2 (Prx2)

>  <endpoint-label>
Potency

>  <result>
> 57 µM (inactive)

$$$$
>  <smiles>
CC(C)c1ccc2c([Si](C)(C)C)c3c(nc2c1)-c1cccc(=O)n1C3

>  <study-system>
Schistosoma mansoni peroxiredoxin 2 (Prx2)

>  <endpoint-label>
Potency

>  <result>
> 57 µM (inactive)

$$$$
>  <smiles>
O=C(NCc1ccccc1)[C@H]1C[C@@H]1[C@H](NP(=O)(c1ccccc1)c1ccccc1)c1ccccc1

>  <study-system>
Schistosoma mansoni peroxiredoxin 2 (Prx2)

>  <endpoint-label>
Potency

>  <result>
> 57 µM (inactive)

$$$$
>  <smiles>
COCCNc1ncnc2ccc(-c3ccccc3CN(C)C)cc12

>  <study-system>
Schistosoma mansoni peroxiredoxin 2 (Prx2)

>  <endpoint-label>
Potency

>  <result>
> 57 µM (inactive)

$$$$
>  <smiles>
C[N+]1(CCN=C=NC2CCCCC2)CCOCC1

>  <study-system>
Schistosoma mansoni peroxiredoxin 2 (Prx2)

>  <endpoint-label>
Potency

>  <result>
> 57 µM (inactive)

$$$$
>  <smiles>
CN(Cc1ccco1)c1cc(-c2ccccc2C(F)(F)F)ncn1

>  <study-system>
Schistosoma mansoni peroxiredoxin 2 (Prx2)

>  <endpoint-label>
Potency

>  <result>
> 57 µM (inactive)

$$$$
>  <smiles>
CNc1nc(-c2ccccc2OC)nc2ccccc12

>  <study-system>
Schistosoma mansoni peroxiredoxin 2 (Prx2)

>  <endpoint-label>
Potency

>  <result>
> 57 µM (inactive)

$$$$
>  <smiles>
NCCNCC1CCNCC1

>  <study-system>
Schistosoma mansoni peroxiredoxin 2 (Prx2)

>  <endpoint-label>
Potency

>  <result>
> 57 µM (inactive)

$$$$
>  <smiles>
FC(F)(F)c1ccccc1-c1cc(NCc2ccccc2)ncn1

>  <study-system>
Schistosoma mansoni peroxiredoxin 2 (Prx2)

>  <endpoint-label>
Potency

>  <result>
> 57 µM (inactive)

$$$$
>  <smiles>
COc1ccccc1-c1nc(N2CCN(C)CC2)c2ccccc2n1

>  <study-system>
Schistosoma mansoni peroxiredoxin 2 (Prx2)

>  <endpoint-label>
Potency

>  <result>
> 57 µM (inactive)

$$$$
>  <smiles>
O=c1c(-c2cc(F)cc(F)c2)nc2cnc(Oc3ccccc3)nc2n1C[C@H]1CCCO1

>  <study-system>
Schistosoma mansoni peroxiredoxin 2 (Prx2)

>  <endpoint-label>
Potency

>  <result>
> 11.4 µM (inactive)

$$$$
>  <smiles>
COc1ccc2nccc(C(=O)O)c2c1

>  <study-system>
Schistosoma mansoni peroxiredoxin 2 (Prx2)

>  <endpoint-label>
Potency

>  <result>
> 25.6 µM (inactive)

$$$$
>  <smiles>
COC(=O)N1CCC2(CCCN(Cc3ccccc3OC)C2)CC1

>  <study-system>
Schistosoma mansoni peroxiredoxin 2 (Prx2)

>  <endpoint-label>
Potency

>  <result>
> 57 µM (inactive)

$$$$
>  <smiles>
O=C(c1csnn1)N1CCC[C@@]2(CCN(c3cccc(-c4ccccc4)c3)C2)C1

>  <study-system>
Schistosoma mansoni peroxiredoxin 2 (Prx2)

>  <endpoint-label>
Potency

>  <result>
> 57 µM (inactive)

$$$$
>  <smiles>
CC1=CC(=O)C2=C(C)C[C@H](O)[C@@H]3[C@@H](OC(=O)[C@H]3C)[C@H]12

>  <study-system>
Schistosoma mansoni peroxiredoxin 2 (Prx2)

>  <endpoint-label>
Potency

>  <result>
> 57 µM (inactive)

$$$$
>  <smiles>
COc1ccccc1CNc1ncnc2ccc(-c3c(C)noc3C)cc12

>  <study-system>
Schistosoma mansoni peroxiredoxin 2 (Prx2)

>  <endpoint-label>
Potency

>  <result>
> 57 µM (inactive)

$$$$
>  <smiles>
Cc1c(C)c2c(c(C)c1O)CC[C@@](C)(CN1CCN(c3cc(N4CCCC4)nc(N4CCCC4)n3)CC1)O2

>  <study-system>
Schistosoma mansoni peroxiredoxin 2 (Prx2)

>  <endpoint-label>
Potency

>  <result>
> 25.6 µM (inactive)

$$$$
>  <smiles>
Clc1ccc(C=Nc2ccc3c(c2)Cc2ccccc2-3)c(Cl)c1

>  <study-system>
Schistosoma mansoni peroxiredoxin 2 (Prx2)

>  <endpoint-label>
Potency

>  <result>
> 57 µM (inactive)

$$$$
>  <smiles>
O=c1cnc2cnc(Nc3ccccc3)nc2n1Cc1ccc(F)cc1

>  <study-system>
Schistosoma mansoni peroxiredoxin 2 (Prx2)

>  <endpoint-label>
Potency

>  <result>
> 57 µM (inactive)

$$$$
>  <smiles>
Cc1c2c(nc3ccccc13)-c1cccc(=O)n1C2

>  <study-system>
Schistosoma mansoni peroxiredoxin 2 (Prx2)

>  <endpoint-label>
Potency

>  <result>
> 57 µM (inactive)

$$$$
